Values compiled from patent US12448383B2.

- test-method-notes: GI S9 stability - no PMSF
- Type: in vitro ADME
- condition-summary: pH 7.4; human intestinal S9, PMSF-free; read-out: GIS9-HUMAN-NoPMSF T1/2
measured-parameter: log10 half-life at 2 µM (log10 of the value in s)
// do not treat as linear: log10 of half-life at 2 µM, unit s

Here's what some known entries look like.
N#C[C@@]1(c2ccc3c(N)ncnn23)O[C@H](COC(=O)OC2CCCCC2)[C@@H](O)[C@H]1O
1.55
CC1(C)C2CCC1(C)C(OC(=O)OC[C@H]1O[C@@](C#N)(c3ccc4c(N)ncnn34)[C@H](O)[C@@H]1O)C2 (stereo partly shown)
3.19
N#C[C@@]1(c2ccc3c(N)ncnn23)O[C@H](COC(=O)OC(CF)CF)[C@@H](O)[C@H]1O
1.83
N#C[C@@]1(c2ccc3c(N)ncnn23)O[C@H](COC(=O)OCC2CC(F)(F)C2)[C@@H](O)[C@H]1O
1.54
CCC(C)(CC)OC(=O)OC[C@H]1O[C@@](C#N)(c2ccc3c(N)ncnn23)[C@H](O)[C@@H]1O
3.47

Challenge: Provide measured log10 half-life at 2 µM value, entry: CC(C)OC(=O)OC[C@H]1O[C@@](C#N)(c2ccc3c(N)ncnn23)[C@H](OC(=O)OC(C)C)[C@@H]1OC(=O)OC(C)C
Response given: 1.62

Challenge: Provide measured log10 half-life at 2 µM value, entry: CC[C@H](C)OC(=O)OC[C@H]1O[C@@](C#N)(c2ccc3c(N)ncnn23)[C@H](O)[C@@H]1O
Response given: 1.55
